Assay: STAT1 signaling activators, primary screen, cell-based, HTS, luciferase reporter (AID 932);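 also: raw ratio to IFN-gamma control signal so 100% means no change and 0% no light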
Conditions: NIH 3T3 STAT1-luciferase reporter, IFN-gamma, luminescence; at 5.5 µM; hits give high values; 100% = IFN-gamma alone, no compound
About 5,100 (2.5%) of roughly 200,000 compounds were called active. What follows is part of a selection rich in actives, with near analogues and random picks from the rest.
Measure: activation (% of control)

Answered examples (3):
Incoming: Fill in: activation (% of control) of COc1cc(-c2nc(-c3ccncc3)no2)cc(OC)c1OC is ___
Outgoing: 97.3% (inactive)

Incoming: Fill in: activation (% of control) of Cc1cc(C)cc(N(CC(=O)NCCSCc2ccco2)S(C)(=O)=O)c1 is ___
Outgoing: 102% (inactive)

Incoming: Fill in: activation (% of control) of COCc1c(C(=O)OCc2c(C)noc2C)oc2ccccc12 is ___
Outgoing: 100% (inactive)

---
Incoming: Fill in: activation (% of control) of CC(=O)Nc1ccc(Nc2c3ccccc3nc3ccccc23)cc1 is ___
Outgoing: 137% (active)

###

// values below are reported activation (% of control)
Assay: STAT1 signaling activators, primary screen, cell-based, HTS, luciferase reporter (AID 932);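 also: raw ratio to IFN-gamma control signal so 100% means no change and 0% no light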
Details: NIH 3T3 STAT1-luciferase reporter, IFN-gamma, luminescence; at 5.5 µM; hits give high values; 100% = IFN-gamma alone, no compound
Screen size: about 200,000 compounds; about 5,100 (2.5%) were called active. The sample as a whole holds a higher share of actives than the screen did.
The figure you give is taken to be in %; do not add the unit.

Incoming: Fill in: activation (% of control) of O=C(c1ccc2c(c1)N(Cc1ccc(F)cc1)C(=O)c1ccccc1S2(=O)=O)N1CCN(c2ccccn2)CC1 is ___
Outgoing: 97.5

Incoming: Fill in: activation (% of control) of CC(C)C(O)C1CCN(Cc2nc(Cc3ccccc3Cl)no2)CC1 (centres undefined) is ___
Outgoing: 105

Incoming: Fill in: activation (% of control) of CN(C)/C=C(/C(=O)c1ccc(F)cc1)S(=O)(=O)c1ccc(F)cc1 is ___
Outgoing: 106

Incoming: Fill in: activation (% of control) of Cc1cccc(C(=O)N2CCCN(C(=O)c3cccc(C)c3)CC2)c1 is ___
Outgoing: 103

Incoming: Fill in: activation (% of control) of CCC(=O)Oc1cccc(C(=O)Nc2ccc(-c3nnc(-c4ccco4)o3)cc2)c1 is ___
Outgoing: 104

---
Incoming: Fill in: activation (% of control) of CCOC(=O)c1c(NC(=S)NC(=O)/C=C/c2cccs2)sc(C)c1C is ___
Outgoing: 105

Incoming: Fill in: activation (% of control) of CC(C)(C)c1ccc(/C=C/C(=O)NC2CCS(=O)(=O)C2)cc1 (centres undefined) is ___
Outgoing: 104

Incoming: Fill in: activation (% of control) of Cc1cc(=O)oc(C)c1C(=O)N1CCCCC1 is ___
Outgoing: 104

Incoming: Fill in: activation (% of control) of Cc1ccc(NC(=O)CN(C)CC(=O)Nc2cccc(F)c2)cc1[N+](=O)[O-] is ___
Outgoing: 67.3

Incoming: Fill in: activation (% of control) of O=c1c(-c2ccccc2)coc2cc(O)ccc12 is ___
Outgoing: 137

Incoming: Fill in: activation (% of control) of CC1CCCCC1NC(=O)CN1CCC(O)(c2ccc3c(c2)OCO3)CC1 (centres undefined) is ___
Outgoing: 102

Incoming: Fill in: activation (% of control) of c1ccc(-c2[nH]ncc2-c2nc3ccccc3[nH]2)cc1 is ___
Outgoing: 89.6

Incoming: Fill in: activation (% of control) of Cc1c(NC(=O)Nc2ccccc2)cccc1[N+](=O)[O-] is ___
Outgoing: 83.6

Incoming: Fill in: activation (% of control) of Cc1ccn(-c2cccc(-n3ccc(C)n3)n2)n1 is ___
Outgoing: 135

Incoming: Fill in: activation (% of control) of CCn1c(CNS(=O)(=O)c2ccc(Cl)cc2)n[nH]c1=S is ___
Outgoing: 94.3

Incoming: Fill in: activation (% of control) of COCCOC(=O)c1c(C)oc2cc(Br)c(OCC(N)=O)cc12 is ___
Outgoing: 94.5

Incoming: Fill in: activation (% of control) of CC1CN(/C=C/C(=O)C(F)(F)F)CC(C)O1 (centres undefined) is ___
Outgoing: 95.8

Incoming: Fill in: activation (% of control) of Cc1csc(NC(=O)Nc2ccccc2[N+](=O)[O-])n1 is ___
Outgoing: 133

###

Assay: STAT1 signaling activators, primary screen, cell-based, HTS, luciferase reporter (AID 932);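 also: raw ratio to IFN-gamma control signal so 100% means no change and 0% no light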
Conditions: NIH 3T3 STAT1-luciferase reporter, IFN-gamma, luminescence; at 5.5 µM; 100% = IFN-gamma alone, no compound
Out of some 200,000 compounds screened, about 5,100 (2.5%) were called active.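 Rule for the calls: active = activation above the screen-wide mean activation plus 3 SD (cut at about 130% in these data); inactive = the rest.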 The sample holds actives, similar compounds and a random draw of the others, so the mix is not that of the screen.
Just give me one of these, please: yes (1) (active), no (0) (inactive)

Take a look at these entries with their results.
Incoming: Dear colleague, could you share the recorded outcome for O=C(Oc1ccc([N+](=O)[O-])cc1)c1ccc2ccccc2n1 when you have a moment?
Outgoing: no (0)

Incoming: Dear colleague, could you share the recorded outcome for Cc1ccc(C(=O)Nc2cccc3ncccc23)cc1[N+](=O)[O-] when you have a moment?
Outgoing: no (0)

Incoming: Dear colleague, could you share the recorded outcome for Cc1ccnc(NC(=O)c2ccc(Cl)c([N+](=O)[O-])c2)c1 when you have a moment?
Outgoing: no (0)

Incoming: Dear colleague, could you share the recorded outcome for Cc1c(Cl)cnc(NC(=O)COC(=O)c2ccc(S(=O)(=O)NCc3ccco3)cc2)c1Cl when you have a moment?
Outgoing: no (0)

Incoming: Dear colleague, could you share the recorded outcome for N#CC(=C1SC=CS1)c1nc(-c2ccccc2)cs1 when you have a moment?
Outgoing: yes (1)

Incoming: Dear colleague, could you share the recorded outcome for CCc1ccc2c(c1)C(c1ccc([N+](=O)[O-])cc1)=NNC(c1ccccc1)=N2 when you have a moment?
Outgoing: no (0)

---
Incoming: Dear colleague, could you share the recorded outcome for CCOC(=O)CCNC(=O)N1CCCC(C(=O)c2ccccc2SC)C1 (stereo not given) when you have a moment?
Outgoing: no (0)

Incoming: Dear colleague, could you share the recorded outcome for CN1CCCC(OC(=O)COc2ccc(Br)cc2)C1 (stereo not given) when you have a moment?
Outgoing: no (0)

Incoming: Dear colleague, could you share the recorded outcome for COc1cccc(/C(C)=N/Nc2ncc(Cl)cc2Cl)c1 when you have a moment?
Outgoing: no (0)

Incoming: Dear colleague, could you share the recorded outcome for O=C(Nc1ccc(Cl)cn1)Nc1cccs1 when you have a moment?
Outgoing: no (0)

Incoming: Dear colleague, could you share the recorded outcome for Cc1ccc2nc(SCc3cn4c(C)cc(C)nc4n3)[nH]c2c1 when you have a moment?
Outgoing: no (0)

Incoming: Dear colleague, could you share the recorded outcome for COc1ccc(C2=NN(c3nc4ccccc4s3)C(=O)C2)cc1 when you have a moment?
Outgoing: no (0)

Incoming: Dear colleague, could you share the recorded outcome for CCCC(=O)N1c2ccc(-c3csc(N)n3)cc2CC1C (stereo not given) when you have a moment?
Outgoing: yes (1)

Incoming: Dear colleague, could you share the recorded outcome for CCn1nc(C(=O)OCC(=O)N2c3ccccc3CC2C)c2ccccc2c1=O (stereo not given) when you have a moment?
Outgoing: no (0)

Incoming: Dear colleague, could you share the recorded outcome for N#CCC(=O)N/N=C/c1ccc(SCC(=O)Nc2ccccc2)o1 when you have a moment?
Outgoing: no (0)

Incoming: Dear colleague, could you share the recorded outcome for CCc1nnc(NC(=O)CSc2nc(SC)ns2)s1 when you have a moment?
Outgoing: no (0)

Incoming: Dear colleague, could you share the recorded outcome for Cc1nonc1C1CCCN1Cc1nc(-c2ccc(F)cc2F)oc1C (stereo not given) when you have a moment?
Outgoing: no (0)

Incoming: Dear colleague, could you share the recorded outcome for CCCc1cc(-c2nc(-c3ccc(C)cc3)cs2)ccn1 when you have a moment?
Outgoing: no (0)

Incoming: Dear colleague, could you share the recorded outcome for O=C(O)Cc1sc(-c2ccc(C(=O)O)cc2)nc1-c1ccccc1 when you have a moment?
Outgoing: no (0)

Incoming: Dear colleague, could you share the recorded outcome for O=C(NC1CCC(O)CC1)c1ccc(S(=O)(=O)NCc2ccco2)cc1 (stereo not given) when you have a moment?
Outgoing: no (0)

###

Test: STAT1 signaling activators, primary screen, cell-based, HTS, luciferase reporter (AID 932);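 also: raw ratio to IFN-gamma control signal so 100% means no change and 0% no light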
Conditions: NIH 3T3 STAT1-luciferase reporter, IFN-gamma, luminescence; at 5.5 µM; 100% = IFN-gamma alone, no compound
Hit rate of the full screen: of about 200,000 compounds, about 5,100 (2.5%) were called active.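 The calls were made as follows: active = activation above the screen-wide mean activation plus 3 SD (cut at about 130% in these data); inactive = the rest.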 What follows is part of a selection rich in actives, with near analogues and random picks from the rest.
Just give me one of these, please: class 1 = active, class 0 = inactive

Take a look at these entries with their results.
Incoming: Dear colleague, could you share the recorded outcome for Cc1ccc(N(C(=O)c2ccc(S(=O)(=O)N(C)C)cc2)C2C=CS(=O)(=O)C2)cc1 (centres undefined) when you have a moment?
Outgoing: class 0

Incoming: Dear colleague, could you share the recorded outcome for O=C(c1cnn2ccccc12)N1CCc2ccccc21 when you have a moment?
Outgoing: class 1

Incoming: Dear colleague, could you share the recorded outcome for COc1ccc2oc(=O)c(C(=O)N3CCCc4ccccc43)cc2c1 when you have a moment?
Outgoing: class 0

Please look at the following compound next.
Incoming: Dear colleague, could you share the recorded outcome for O=C(CSc1nnc(-c2ccco2)n1Cc1ccccc1)NC(=O)NCc1ccco1 when you have a moment?
Outgoing: class 0
